Target Under Test: Gal3S(b1-4)[Fuc(a1-3)]GlcNAc
Method Notes: glycan array binding signal (z-score within array); higher = stronger binding
Assay Conditions: glycan notation: IUPAC condensed, linker removed
Only a selection was taken, and the strongest signals are over-represented in it overall.
Assign true to entries whose glycan array binding signal (z-score) meets or exceeds -0.3; assign false to the rest.

Binder: Gal 12 (Homo sapiens), Q96DT0 (protein) MSQPSGGRAPGTRIYSWSCPTVMSPGEKLDPIPDSFILQPPVFHPVVPYVTTIFGGLHAGKMVMLQGVVPLDAHRFQVDFQCGCSLCPRPDIAFHFNPRFHTTKPHVICNTLHGGRWQREARWPHLALRRGSSFLILFLFGNEEVKVSVNGQHFLHFRYRLPLSHVDTLGIFGDILVEAVGFLNINPFVEGSREYPAGHPFLLMSPRLEVPCSHALPQGLSPGQVIIVRGLVLQEPKHFTVSLRDQAAHAPVTLRASFADRTLAWISRWGQKKLISAPFLFYPQRFFEVLLLFQEGGLKLALNGQGLGATSMNQQALEQLRELRISGSVQLYCVHS
Group Label: true

Binder: UDA (Urtica dioica), P11218 (protein) MMMRFLSAVVIMSSAMAVGLVSAQRCGSQGGGGTCPALWCCSIWGWCGDSEPYCGRTCENKCWSGERSDHRCGAAVGNPPCGQDRCCSVHGWCGGGNDYCSGSKCQYRCSSSVRGPRVALSGNSTANSIGNVVVTEPLFDQMFSHRKDCPSQGFYSYHSFLVAAESFPAFGTIGDVATRKREVAAFLAHISQATSGERSDVENPHAWGLCHINTTTVTENDFCTSSDWPCAAGKKYSPRGPIQLTHNFNYGLAGQAIGEDLIQNPDLVEKDPIISFKTALWFWMSQHDNKPSCHDIVLNANSAANRIPNKGVIGNIISRAFGHDDFAVRSSSIGFYKRYCDMLGVSYGHDLKYWFDNTPSSEFQRIQMRVAA
Group Label: true

Binder: LlpB (Pseudomonas fluorescens) (protein) MGSSHHHHHHSSGLVPRGSHMASSGFRIILFNSANNGTAILPPRNCLVAGQYLESPSKRYKLILEADGNLRLYDNGVPIWVADSSVPYTYVDNRPNTNLVTCFYMQGSAFLVDRVGSRTWATIGDWIDGAADRAYLQVQDDGNVVVVDGVPRWARFGFTPAALPNRGVFYPDHGTGPLPSFPVWSWTF
Group Label: false

Binder: EUL D1A second (Oryza sativa) (protein) GAATACTIGGVPVHTVRVFSAAGEDYCLTVRNGTACLAPKNPRDDYQHWIKDMRHSNKIRDEEGYPAFALVNKVTGEAIKHSTGQGHPVKLVPYNPEYQDESVLWTESKDVGKGFRCIRMVNNIYLNFDAFHGDKDHGGIHDGTEIVLWKWCEGDNQRWKILPWILEQKLISEEDLNSAVDHHHHHH
Group Label: true

Binder: SP16665A-bot-344-23-344 (Bacteroides ovatus) (protein) SDNEFPDFDYQTVYFANQYGLRTIELGESEFVDNTLDNQHKMVIKAAWGGGYTNRNNVVINFKVDESLCDNLYFKDTDQPLVPMPASYYTLASDRIAIPKGQIMAGVEVQLTDDFFADEKSISENYVIPLLMTNVQGADSILQGKPVVENPVLTNAGDWSILPQNFVLYAVKYVNPWHGEYLRRGIDHATVAGTSKDIIRHEQFVENDEVVNISTKSMKDNLLTLKTKDESGKDISYTVRLSFAEDGSCTVHSGSQNVVVSGSGKFVSKGEKNSLGGKDRNAIYLDYTVNLTDNNIQLATKDTLVLRTRNVYGGKSLEVVRK
Group Label: true
